Value source: the METLIN SMRT retention time set (Domingo-Almenara et al. 2019)

RP-LC retention time for assorted compounds
# PROTOCOL_DETAILS: gradient 5% acetonitrile 3 min, to 50% in 2 min, to 85% in 15 min, held 3 min, 100 µL/min
# TEST_SETTINGS: column: Zorbax Extend-C18 2.1 x 50 mm; eluents: water / acetonitrile, 0.1% formic acid
// return numeric value only (unit: s, not printed)

*Q* What value of RP-LC retention time has been recorded for this entry: "CCc1ccc(NC(=O)c2cn(CC)c3ncccc23)cc1"
*A* 962

*Q* Can you check "Cn1ncc2c(N3CCSCC3)nc(C(=O)NCc3ccc(C(F)(F)F)cc3)nc21" next?
*A* 907

*Q* Further, for "CC(=O)Nc1nsc(N2CCC(C(=O)NCc3ccc(F)cc3)CC2)n1" ?
*A* 649

*Q* Try "COc1ccc(-c2nnc(-c3ccccc3)o2)cc1S(=O)(=O)N1CCCCCC1" next.
*A* 1070

====

Property: RP-LC retention time; scope: individual molecules
# PROTOCOL_DETAILS: gradient 5% acetonitrile 3 min, to 50% in 2 min, to 85% in 15 min, held 3 min, 100 µL/min
# TEST_SETTINGS: column: Zorbax Extend-C18 2.1 x 50 mm; eluents: water / acetonitrile, 0.1% formic acid
Provide only the numeric value, understood in s.

*Q* Item under review: "O=C(Nc1ccc2c(c1)OCO2)Nc1cccn2c(C3CCC3)nnc12" . Reported RP-LC retention time?
*A* 801

*Q* Then what about the molecule "Cc1cnc(C2CN(Cc3cccnc3)C2)n1Cc1ccccc1" ?
*A* 536

*Q* Another molecule to look at: "O=C(CN1CCN(Cc2cccc(Cl)c2)C1=O)NCc1ccc(N2CCOCC2)cc1"
*A* 736

*Q* Follow-up entry: "O=C(c1ccccc1)N1CCc2cc(-c3ccno3)ccc21"
*A* 886

*Q* # iterate: "COc1cc(-c2ccnc3nc(Cc4ccc(F)cc4)nn23)cc(OC)c1OC"
*A* 695

====

# PROTOCOL_DETAILS: gradient 5% acetonitrile 3 min, to 50% in 2 min, to 85% in 15 min, held 3 min, 100 µL/min
# TEST_SETTINGS: column: Zorbax Extend-C18 2.1 x 50 mm; eluents: water / acetonitrile, 0.1% formic acid
Class yes: RP-LC retention time at least 700 s. Class no: RP-LC retention time below 700 s.

O=C(c1cccc(Br)c1)N1CCN(Cc2noc3ccccc23)CC1
yes
COc1cccc(N2CCN(Cc3nc(-c4ccc(N5CCC(C)CC5)nc4)no3)CC2)c1
yes
O=S(=O)(c1ccc(Br)s1)N1CCCC1c1nc(-c2ccc(F)cc2)no1 (stereo not given)
yes
COc1ccc(NC(=O)N2CCC(n3cnc4cccnc43)CC2)cc1OC
no
CCN1CCCc2cc(C(=O)N3CCC4(CC3)OCCO4)sc21
no
COCCCN(C(=O)c1ccccc1)C(C)C(=O)c1c(C)[nH]c(C(=O)OC)c1C (stereo not given)
yes

*Q* Does RP-LC retention time meet or surpass 700 s for "Cc1ccc2c(Nc3cccc(Cl)c3)c(-c3nc(C)no3)cnc2n1" ?
*A* yes

====

# PROTOCOL_DETAILS: gradient 5% acetonitrile 3 min, to 50% in 2 min, to 85% in 15 min, held 3 min, 100 µL/min
# TEST_SETTINGS: column: Zorbax Extend-C18 2.1 x 50 mm; eluents: water / acetonitrile, 0.1% formic acid
Assign 1 whenever RP-LC retention time does not fall below 800 s; assign -1 whenever it does.

Worked set:
Cc1ccc(-c2cn3c(CC(=O)Nc4ccc(Cl)cc4)csc3n2)cc1C
1
CCCc1cc(C2CCCN2C(=O)c2c(OC)cccc2OC)no1 (centres undefined)
1
NC(=O)C1CCN(C(=O)CN2c3ccc(Br)cc3-c3ccccc3S2(=O)=O)CC1
-1
COc1ccc(NC(=O)N2CCN(CCn3c(C(F)(F)F)nc4cccnc43)CC2)cc1OC
-1
O=C(NCc1ccccc1Cl)C1=C2CCCN2c2ccc(F)cc2S1(=O)=O
1
COc1ccc(-c2nc(C)cc(C)c2CNS(=O)(=O)c2ccc(C#N)cc2)cc1
-1
Cc1ccc(C)c(NC(=O)N2CCC(OC3CCN(S(C)(=O)=O)CC3)CC2)c1
-1
COc1cccc(C2=NN(C(C)=O)C(c3ccc(Br)cc3)O2)c1OC(C)=O (centres undefined)
1
CCn1c(=O)c(C)nc2cc(-c3noc(-c4cc(OC)cc(OC)c4)n3)ccc21
1
COC(=O)c1cccc(NC(=O)N(C)CCc2noc(C3CCCCC3)n2)c1
1

*Q* API: above_or_equal(metric=RP-LC retention time, cutoff=800 s) for item "CN(C)c1ccc(/C=C/C(=O)c2ccccc2)cc1Br"
*A* 1

*Q* Same read-out for "Cn1nc(CNC(=O)c2ccc3c(c2)OCO3)c2ccccc21" ?
*A* -1

*Q* Consider next the compound COc1ccc(-c2nc(C3CC(=O)N(c4ccc(Cl)cc4)C3)no2)c(OC)c1 (centres undefined) in the same way.
*A* 1
